Hello, the source for this data is ChEMBL document CHEMBL1124531, in case you need it.

# Test system: Nucleic Acid
# protocol.details: Ratio for human acute promyelocytic leukemia cells(HL-60) cell growth inhibition and [3H]TdR incorporation into DNA in HL-60 cells
# Format: functional, cell-based
readout.kind: Ratio
Form field (numeric): enter value without unit.

Worked set:
Problem: Please report the measured Ratio for COc1cc(OC)c2c(c1)C(=O)c1cc(CN(CCCl)CCCl)cc(OC)c1C2=O
Result: 4.5

Problem: Give a short answer stating reported Ratio for COc1cccc2c1C(=O)c1c(OC)cc(CBr)cc1C2=O .
Result: 2.5

Problem: Quote Ratio reported for COc1cc(O)c2c(c1)C(=O)c1cc(CN(CCO)CCO)cc(O)c1C2=O please.
Result: 5.2

Problem: Fill in reported Ratio for this entry: CCNCc1cc(O)c2c(c1)C(=O)c1cc(OC)cc(O)c1C2=O
Result: 6.2

From here, focus on the item given below.
Problem: Look up and report measured Ratio for this entry: CN(C)Cc1cc(O)c2c(c1)C(=O)c1cccc(O)c1C2=O
Result: 3.3
